molecular target: NDM-1 (Klebsiella pneumoniae); assay: biochemical; format: biochemical; conditions: NDM-1 enzyme, CCF2-FA substrate; read-out: NDM-1 IC50
Sequence (C7C422 whole entry, looked up, species assumed): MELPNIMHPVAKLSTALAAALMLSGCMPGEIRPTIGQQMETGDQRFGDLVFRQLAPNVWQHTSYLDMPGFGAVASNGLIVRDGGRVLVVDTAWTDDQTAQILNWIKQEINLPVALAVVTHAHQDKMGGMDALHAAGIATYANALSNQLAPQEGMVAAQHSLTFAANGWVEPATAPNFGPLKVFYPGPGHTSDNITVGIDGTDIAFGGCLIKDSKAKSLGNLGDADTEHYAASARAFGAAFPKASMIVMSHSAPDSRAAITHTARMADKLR
pIC50: −log10 of the molar value.
The entries below come with measured pIC50 values attached.

{"compound": "NS(=O)(=O)c1c(C[C@H]2CC[C@@H](N)CC2)ccc(-c2ccc(C3CCNC3)cc2)c1-c1nnn[nH]1 (stereo partly shown) [Example 583]", "pIC50": 8.19}
{"compound": "NCCc1cccc(-c2ccc(C(F)(F)F)c(S(N)(=O)=O)c2-c2nnn[nH]2)c1 [Example 734]", "pIC50": 7.50}
{"compound": "NS(=O)(=O)c1c(C(F)(F)F)ccc([C@H]2CC[C@H](NC3CCC4(CCNCC4)CC3)CC2)c1-c1nnn[nH]1 [Example 689]", "pIC50": 7.57}
{"compound": "CC(CCCN)N[C@H]1CC[C@H](c2ccc(C(F)(F)F)c(S(N)(=O)=O)c2-c2nnn[nH]2)CC1 (stereo partly shown) [Example 688]", "pIC50": 7.36}

====

target: IMP-1 (Serratia marcescens); experiment: biochemical; type: biochemical; settings: IMP-1 enzyme, CCF2-FA fluorescence assay; read-out: IMP-1 IC50
pIC50: −log10 of the molar value.
outcome_measure: pIC50

{"molecule": "CN1C2CCC1CC(NCc1ccc(-c3cccc(S(N)(=O)=O)c3-c3nnn[nH]3)cc1)C2 (stereo not shown)", "recorded_number": 7.34}
{"molecule": "CN(C)CCCN(C)Cc1ccc(-c2cccc(S(N)(=O)=O)c2-c2nnn[nH]2)cc1", "recorded_number": 6.38}
{"molecule": "NS(=O)(=O)c1cccc(-c2ccc(CN[C@@H]3CC[C@H](O)C3)cc2)c1-c1nnn[nH]1", "recorded_number": 6.14}
{"molecule": "NS(=O)(=O)c1cccc(-c2ccnc3ncccc23)c1-c1nnn[nH]1", "recorded_number": 6.60}

====

The entries below come with measured log10 IC50 values attached.
target: IMP-1 (Serratia marcescens); assay: biochemical; type: biochemical; details: IMP-1 enzyme, CCF2-FA fluorescence assay; read-out: IMP-1 IC50
outcome_measure: log10 IC50 (log10 of the value in nM)

{"molecule": "Cc1ccccc1-c1cccc(S(N)(=O)=O)c1-c1nn[nH]n1 [Example 325]", "log10 IC50": 2.36}
{"molecule": "NS(=O)(=O)c1cccc(-c2cnc3[nH]ccc3c2)c1-c1nn[nH]n1 [Example 312]", "log10 IC50": 2.03}
{"molecule": "NS(=O)(=O)c1c(C(F)(F)F)ccc(-c2cnc3cc[nH]c3c2)c1-c1nnn[nH]1 [Example 474]", "log10 IC50": 0.59}
{"molecule": "NC(=O)c1ccc2cc(-c3cccc(S(N)(=O)=O)c3-c3nn[nH]n3)ccc2n1 [Example 288]", "log10 IC50": 1.95}
{"molecule": "NS(=O)(=O)c1cccc(-c2ccc3nccnc3c2)c1-c1nnn[nH]1 [Example 405]", "log10 IC50": 1.83}
{"molecule": "CCCc1ccc(-c2ccc(C3CCNCC3)cc2)c(-c2nnn[nH]2)c1S(N)(=O)=O [Example 260]", "log10 IC50": 0.83}
{"molecule": "N=CNCc1ccc(-c2ccc(Br)c(S(N)(=O)=O)c2-c2nn[nH]n2)cc1 [Example 425]", "log10 IC50": 1.20}
{"molecule": "N=C(N)NCc1ccc(-c2ccc(C(F)(F)F)c(S(N)(=O)=O)c2-c2nn[nH]n2)cc1 [Example 440]", "log10 IC50": 0.53}

====

target: VIM-1 (Pseudomonas aeruginosa (strain ATCC 15692 / DSM 22644 / CIP 104116 / JCM 14847 / LMG 12228 / 1C / PRS 101 / PAO1), UniProt A0A0F7KYQ8); assay: Enzyme activity: determination of IC50, fluorescence assay with CCF2-FA substrate (VIM-1); assay type: biochemical; conditions: VIM-1 enzyme, CCF2-FA fluorescence assay; read-out: VIM-1 IC50

{"chemical_structure": "Nc1cnc2cc(-c3cccc(S(N)(=O)=O)c3-c3nnn[nH]3)ccc2c1", "reading_unit": "nM", "IC50": 13.7}
{"chemical_structure": "NS(=O)(=O)c1cccc(-c2ccc(CNCCc3cc[nH]n3)cc2)c1-c1nnn[nH]1", "reading_unit": "nM", "IC50": 146}
{"chemical_structure": "NS(=O)(=O)c1cccc(-c2snc3ncccc23)c1-c1nnn[nH]1", "reading_unit": "nM", "IC50": 2.08}
{"chemical_structure": "NCc1ccc(-c2ccc(C(F)(F)F)c(S(N)(=O)=O)c2-c2nn[nH]n2)cc1", "reading_unit": "nM", "IC50": 4.05}

====

The entries below come with measured pIC50 values attached.
target: IMP-1 (Serratia marcescens, UniProt P52699); assay: biochemical; type: biochemical; settings: IMP-1 enzyme, CCF2-FA substrate; read-out: IMP-1 IC50
Sequence (P52699 whole entry, looked up): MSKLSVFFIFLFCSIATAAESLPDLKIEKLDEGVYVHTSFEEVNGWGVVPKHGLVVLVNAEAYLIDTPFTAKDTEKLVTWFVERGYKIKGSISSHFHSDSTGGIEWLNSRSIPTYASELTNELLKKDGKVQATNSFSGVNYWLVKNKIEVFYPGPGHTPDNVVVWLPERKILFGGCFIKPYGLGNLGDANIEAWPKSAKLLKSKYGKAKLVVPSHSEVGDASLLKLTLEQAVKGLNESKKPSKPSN
pIC50: −log10 of the molar value.
outcome_measure: pIC50

{"molecule": "CC(N[C@H]1CC[C@H](c2ccc(C(F)(F)F)c(S(N)(=O)=O)c2-c2nnn[nH]2)CC1)C1CCNCC1 (stereo partly shown)", "outcome_measure": "pIC50", "recorded_number": 6.81}
{"molecule": "CN(C)CCNc1nc2c(-c3cccc(S(N)(=O)=O)c3-c3nn[nH]n3)cccc2s1", "outcome_measure": "pIC50", "recorded_number": 6.71}
{"molecule": "NS(=O)(=O)c1c(C(F)(F)F)ccc(-c2cccc3c2CCNC3)c1-c1nn[nH]n1", "outcome_measure": "pIC50", "recorded_number": 7.43}
{"molecule": "NC[C@H]1CC[C@H](c2ccc(CC3CCNCC3)c(S(N)(=O)=O)c2-c2nn[nH]n2)CC1 [Example 589]", "outcome_measure": "pIC50", "recorded_number": 6.83}
{"molecule": "Nc1nc2c(-c3ccc(CCCCCO)c(S(N)(=O)=O)c3-c3nn[nH]n3)cccc2s1", "outcome_measure": "pIC50", "recorded_number": 8.02}
{"molecule": "NC(=O)c1cc2cccc(-c3ccc(C(F)(F)F)c(S(N)(=O)=O)c3-c3nn[nH]n3)c2[nH]1", "outcome_measure": "pIC50", "recorded_number": 9.37}
{"molecule": "NS(=O)(=O)c1c(C(F)(F)F)ccc(N2CCN(CCCO)CC2)c1-c1nnn[nH]1", "outcome_measure": "pIC50", "recorded_number": 7.41}
{"molecule": "Nc1nc2ccc(-c3ccc(CC4CCNCC4)c(S(N)(=O)=O)c3-c3nn[nH]n3)cc2[nH]1", "outcome_measure": "pIC50", "recorded_number": 6.94}
{"molecule": "NS(=O)(=O)c1c(CC[C@H]2CC[C@H](N)CC2)ccc(-c2ccc(C3CNC3)cc2)c1-c1nnn[nH]1", "outcome_measure": "pIC50", "recorded_number": 8.19}
{"molecule": "NS(=O)(=O)c1c(CCCCCO)ccc(CCCCCO)c1-c1nn[nH]n1", "outcome_measure": "pIC50", "recorded_number": 8.10}
{"molecule": "C[N+]1(C)CCC(Cc2ccc(-c3ccc(C4CNC4)cc3)c(-c3nn[nH]n3)c2S(N)(=O)=O)CC1", "outcome_measure": "pIC50", "recorded_number": 6.80}
{"molecule": "NS(=O)(=O)c1c(C(F)(F)F)ccc(C2CCC2)c1-c1nnn[nH]1", "outcome_measure": "pIC50", "recorded_number": 7.80}
{"molecule": "NS(=O)(=O)c1cccc(-c2cccc3sc(N[C@H]4CC[C@H](N)CC4)nc23)c1-c1nnn[nH]1", "outcome_measure": "pIC50", "recorded_number": 7.58}
{"molecule": "NCCCc1ccc(-c2ccc(C(F)(F)F)c(S(N)(=O)=O)c2-c2nnn[nH]2)cc1", "outcome_measure": "pIC50", "recorded_number": 8.77}
{"molecule": "NCCCNc1nc2c(-c3cccc(S(N)(=O)=O)c3-c3nnn[nH]3)cccc2s1", "outcome_measure": "pIC50", "recorded_number": 7.00}
{"molecule": "NS(=O)(=O)c1c(C[C@H]2CC[C@@H](N)CC2)ccc(-c2ccc(C3CCNC3)cc2)c1-c1nnn[nH]1 (stereo partly shown)", "outcome_measure": "pIC50", "recorded_number": 7.92}

====

The entries below come with measured IC50 values attached.
target: IMP-1 (Serratia marcescens, UniProt P52699); experiment: biochemical; assay type: biochemical; conditions: fluorescence assay with CCF2-FA substrate; read-out: IMP-1 IC50
outcome_measure: IC50

{"compound": "NC1CCC(c2ccc(CCC3CCNCC3)c(S(N)(=O)=O)c2-c2nn[nH]n2)CC1 (centres unmarked) [Example 838]", "result": "1680 nM"}
{"compound": "Nc1[nH]nc2cc(-c3cccc(S(N)(=O)=O)c3-c3nnn[nH]3)ccc12 [Example 131]", "result": "187 nM"}
{"compound": "CCN(CC)C(=O)c1ccc(-c2cccc(S(N)(=O)=O)c2-c2nn[nH]n2)cc1 [Example 9]", "result": "17.2 nM"}
{"compound": "NS(=O)(=O)c1cccc(CCc2cccnc2)c1-c1nnn[nH]1 [Example 143]", "result": "98.5 nM"}
{"compound": "NS(=O)(=O)c1cccc(CCc2ccccn2)c1-c1nnn[nH]1 [Example 144]", "result": "4500 nM"}
{"compound": "NS(=O)(=O)c1cccc(C2CCC(N3CCNCC3)CC2)c1-c1nn[nH]n1 (centres unmarked) [Example 170]", "result": "577 nM"}
{"compound": "NC1CC(N2CCC(c3ccc(-c4ccc(C(F)(F)F)c(S(N)(=O)=O)c4-c4nnn[nH]4)cc3)CC2)C1 (centres unmarked) [Example 790]", "result": "0.871 nM"}
{"compound": "NS(=O)(=O)c1cccc(-c2ccc3cn[nH]c3c2)c1-c1nn[nH]n1 [Example 90]", "result": "197 nM"}
